Assay: Water solubility in deionized water
Format: physicochemical
Conditions: disodium salt, deionized water; read-out: Total water solubility in deionized water
Counter-ions that a name gives are not always drawn.
measure: solubility

Ask: Data request, read-out solubility, for NC(=S)NN=Cc1ncccc1NC(=O)OCc1ccc(OP(=O)(O)O)cc1 [Prodrug I (disodium salt)]
Result: ≥ 16 mg/mL

Recorded values, source patent US5767134A.
